Tested on: SK-LU-1
assay_comment: relative viability (nuclei count vs DMSO), 5 days (fraction); higher = more cells survive
conditions_used: first compound 20 µM
Listed next: entries and their corresponding relative viability.
measurement_label: relative viability

molecule="COCC1(CO)C(=O)C2CCN1CC2 (configuration not stated) [PRIMA-1MET] + O=C(c1cc(Cc2n[nH]c(=O)c3ccccc23)ccc1F)N1CCN(C(=O)C2CC2)CC1 [Olaparib] (partner 8 µM)" measurement_label="relative viability" result=0.237
molecule="COCC1(CO)C(=O)C2CCN1CC2 (configuration not stated) [PRIMA-1MET] + CC1(C)CCC(c2ccc(Cl)cc2)=C(CN2CCN(c3ccc(C(=O)NS(=O)(=O)c4ccc(N[C@H](CCN5CCOCC5)CSc5ccccc5)c(S(=O)(=O)C(F)(F)F)c4)cc3)CC2)C1 [Navitoclax] (partner 0.5 µM)" measurement_label="relative viability" result=0.0933

###

Test system: HCC-15
assay_comment: relative viability (nuclei count vs DMSO), 5 days (fraction); higher = more cells survive
conditions_used: first compound 8 µM
measurement_label: relative viability

compound="O=c1cc(-c2cccc3c2Sc2ccccc2S3)oc(N2CCOCC2)c1 + CS(=O)(=O)CCNCc1ccc(-c2ccc3ncnc(Nc4ccc(OCc5cccc(F)c5)c(Cl)c4)c3c2)o1 [Lapatinib] (partner 2 µM)" measurement_label="relative viability" readout_number=0.988
compound="O=c1cc(-c2cccc3c2Sc2ccccc2S3)oc(N2CCOCC2)c1 + Cc1nc(NC(=O)N2CCC[C@H]2C(N)=O)sc1-c1ccnc(C(C)(C)C(F)(F)F)c1 [Alpelisib] (partner 2 µM)" measurement_label="relative viability" readout_number=0.922
compound="O=c1cc(-c2cccc3c2Sc2ccccc2S3)oc(N2CCOCC2)c1 + CC1(C)CCC(c2ccc(Cl)cc2)=C(CN2CCN(c3ccc(C(=O)NS(=O)(=O)c4ccc(N[C@H](CCN5CCOCC5)CSc5ccccc5)c(S(=O)(=O)C(F)(F)F)c4)cc3)CC2)C1 [Navitoclax] (partner 0.5 µM)" measurement_label="relative viability" readout_number=0.705
compound="O=c1cc(-c2cccc3c2Sc2ccccc2S3)oc(N2CCOCC2)c1 + Nc1nc2[nH]cc(CCc3ccc(C(=O)N[C@@H](CCC(=O)O)C(=O)O)cc3)c2c(=O)[nH]1 [Pemetrexed] (partner 0.2 µM)" measurement_label="relative viability" readout_number=0.228
compound="O=c1cc(-c2cccc3c2Sc2ccccc2S3)oc(N2CCOCC2)c1 + CC(=O)Nc1cccc(-n2c(=O)n(C3CC3)c(=O)c3c(Nc4ccc(I)cc4F)n(C)c(=O)c(C)c32)c1 [Trametinib] (partner 0.02 µM)" measurement_label="relative viability" readout_number=0.38
compound="O=c1cc(-c2cccc3c2Sc2ccccc2S3)oc(N2CCOCC2)c1 + N=C(N)NC(=N)NCCc1ccccc1 [Phenformin] (partner 250 µM)" measurement_label="relative viability" readout_number=0.503
compound="O=c1cc(-c2cccc3c2Sc2ccccc2S3)oc(N2CCOCC2)c1 + NC(=O)Nc1cc(-c2cccc(F)c2)sc1C(=O)N[C@H]1CCCNC1 [AZD7762] (partner 0.2 µM)" measurement_label="relative viability" readout_number=1.28

###

Test system: NCI-H2347
assay_comment: relative viability (nuclei count vs DMSO), 5 days (fraction); higher = more cells survive
conditions_used: first compound 8 µM
measurement_label: relative viability

compound="O=c1cc(-c2cccc3c2Sc2ccccc2S3)oc(N2CCOCC2)c1 + CCNC(=O)c1noc(-c2cc(C(C)C)c(O)cc2O)c1-c1ccc(CN2CCOCC2)cc1 [Luminespib] (partner 0.01 µM)" measurement_label="relative viability" readout_number=0.391
compound="O=c1cc(-c2cccc3c2Sc2ccccc2S3)oc(N2CCOCC2)c1 + CC(=O)c1c(C)c2cnc(Nc3ccc(N4CCNCC4)cn3)nc2n(C2CCCC2)c1=O [Palbociclib] (partner 0.5 µM)" measurement_label="relative viability" readout_number=0.483
compound="O=c1cc(-c2cccc3c2Sc2ccccc2S3)oc(N2CCOCC2)c1 + CS(=O)(=O)N1CCN(Cc2cc3nc(-c4cccc5[nH]ncc45)nc(N4CCOCC4)c3s2)CC1 [Pictilisib] (partner 1 µM)" measurement_label="relative viability" readout_number=0.476
compound="O=c1cc(-c2cccc3c2Sc2ccccc2S3)oc(N2CCOCC2)c1 + C[C@@H](Oc1cc(-c2cnn(C3CCNCC3)c2)cnc1N)c1c(Cl)ccc(F)c1Cl [Crizotinib] (partner 1 µM)" measurement_label="relative viability" readout_number=0.711
compound="O=c1cc(-c2cccc3c2Sc2ccccc2S3)oc(N2CCOCC2)c1 + CS(=O)(=O)CCNCc1ccc(-c2ccc3ncnc(Nc4ccc(OCc5cccc(F)c5)c(Cl)c4)c3c2)o1 [Lapatinib] (partner 2 µM)" measurement_label="relative viability" readout_number=1.19

###

Listed next: entries and their corresponding relative viability.
System: NCI-H2228
assay_comment: relative viability (nuclei count vs DMSO), 5 days (fraction); higher = more cells survive
conditions_used: first compound 0.03162 µM
measurement_label: relative viability

molecule="O=c1cc(N2CCOCC2)oc2c(-c3cccc4c3sc3ccccc34)cccc12 + COc1cccc2cc(-c3nc([C@H]4CC[C@H](C(=O)O)CC4)n4ncnc(N)c34)[nH]c12 [OSI-027] (partner 0.5 µM)" measured_target=NCI-H2228 measurement_label="relative viability" readout_number=0.775
molecule="O=c1cc(N2CCOCC2)oc2c(-c3cccc4c3sc3ccccc34)cccc12 + CC(=O)Nc1cccc(-n2c(=O)n(C3CC3)c(=O)c3c(Nc4ccc(I)cc4F)n(C)c(=O)c(C)c32)c1 [Trametinib] (partner 0.02 µM)" measured_target=NCI-H2228 measurement_label="relative viability" readout_number=0.424
molecule="O=c1cc(N2CCOCC2)oc2c(-c3cccc4c3sc3ccccc34)cccc12 + N=C(N)NC(=N)NCCc1ccccc1 [Phenformin] (partner 250 µM)" measured_target=NCI-H2228 measurement_label="relative viability" readout_number=0.391
molecule="O=c1cc(N2CCOCC2)oc2c(-c3cccc4c3sc3ccccc34)cccc12 + O=C(CCCCCCC(=O)Nc1ccccc1)NO [Vorinostat] (partner 1 µM)" measured_target=NCI-H2228 measurement_label="relative viability" readout_number=0.896
molecule="CCN(CC)CCCCNc1ncc2cc(-c3cc(OC)cc(OC)c3)c(NC(=O)NC(C)(C)C)nc2n1 + Cc1nc(NC(=O)N2CCC[C@H]2C(N)=O)sc1-c1ccnc(C(C)(C)C(F)(F)F)c1 [Alpelisib] (partner 2 µM)" measured_target=NCI-H2228 measurement_label="relative viability" readout_number=0.755

###

Listed next: entries and their corresponding relative viability.
Test system: LXF-289
assay_comment: relative viability (nuclei count vs DMSO), 5 days (fraction); higher = more cells survive
conditions_used: first compound 0.253 µM
measurement_label: relative viability

compound="O=c1cc(-c2cccc3c2Sc2ccccc2S3)oc(N2CCOCC2)c1 + CS(=O)(=O)CCNCc1ccc(-c2ccc3ncnc(Nc4ccc(OCc5cccc(F)c5)c(Cl)c4)c3c2)o1 [Lapatinib] (partner 2 µM)" readout_number=0.935
compound="O=c1cc(-c2cccc3c2Sc2ccccc2S3)oc(N2CCOCC2)c1 + CC(=O)Nc1cccc(-n2c(=O)n(C3CC3)c(=O)c3c(Nc4ccc(I)cc4F)n(C)c(=O)c(C)c32)c1 [Trametinib] (partner 0.02 µM)" readout_number=0.716
compound="COc1nc(C)cnc1NS(=O)(=O)c1cccnc1-c1ccc(-c2nnco2)cc1 [Zibotentan] + O=C(CCCCCCC(=O)Nc1ccccc1)NO [Vorinostat] (partner 1 µM)" readout_number=0.713
compound="O=c1cc(-c2cccc3c2Sc2ccccc2S3)oc(N2CCOCC2)c1 + N=C(N)NC(=N)NCCc1ccccc1 [Phenformin] (partner 250 µM)" readout_number=0.526
compound="COc1nc(C)cnc1NS(=O)(=O)c1cccnc1-c1ccc(-c2nnco2)cc1 [Zibotentan] + Cc1nc(NC(=O)N2CCC[C@H]2C(N)=O)sc1-c1ccnc(C(C)(C)C(F)(F)F)c1 [Alpelisib] (partner 2 µM)" readout_number=1.04

###

Test system: LCLC-97TM1
assay_comment: relative viability (nuclei count vs DMSO), 5 days (fraction); higher = more cells survive
conditions_used: first compound 0.8 µM
Listed next: entries and their corresponding relative viability.
measurement_label: relative viability

compound="COc1nc(C)cnc1NS(=O)(=O)c1cccnc1-c1ccc(-c2nnco2)cc1 [Zibotentan] + Cc1cc(Nc2cc(N3CCN(C)CC3)nc(Sc3ccc(NC(=O)C4CC4)cc3)n2)n[nH]1 [Tozasertib] (partner 0.1 µM)" measured_target=LCLC-97TM1 readout_number=0.21
compound="COc1nc(C)cnc1NS(=O)(=O)c1cccnc1-c1ccc(-c2nnco2)cc1 [Zibotentan] + COc1cccc2cc(-c3nc([C@H]4CC[C@H](C(=O)O)CC4)n4ncnc(N)c34)[nH]c12 [OSI-027] (partner 0.5 µM)" measured_target=LCLC-97TM1 readout_number=0.606
compound="COc1nc(C)cnc1NS(=O)(=O)c1cccnc1-c1ccc(-c2nnco2)cc1 [Zibotentan] + COc1cc2c(Oc3ccc(NC(=O)C4(C(=O)Nc5ccc(F)cc5)CC4)cc3F)ccnc2cc1OCCCN1CCOCC1 [Foretinib] (partner 0.25 µM)" measured_target=LCLC-97TM1 readout_number=1
compound="COc1nc(C)cnc1NS(=O)(=O)c1cccnc1-c1ccc(-c2nnco2)cc1 [Zibotentan] + Nc1nc2[nH]cc(CCc3ccc(C(=O)N[C@@H](CCC(=O)O)C(=O)O)cc3)c2c(=O)[nH]1 [Pemetrexed] (partner 0.2 µM)" measured_target=LCLC-97TM1 readout_number=0.154
compound="COc1nc(C)cnc1NS(=O)(=O)c1cccnc1-c1ccc(-c2nnco2)cc1 [Zibotentan] + CC1(C)CCC(c2ccc(Cl)cc2)=C(CN2CCN(c3ccc(C(=O)NS(=O)(=O)c4ccc(N[C@H](CCN5CCOCC5)CSc5ccccc5)c(S(=O)(=O)C(F)(F)F)c4)cc3)CC2)C1 [Navitoclax] (partner 0.5 µM)" measured_target=LCLC-97TM1 readout_number=0.403
compound="O=c1cc(-c2cccc3c2Sc2ccccc2S3)oc(N2CCOCC2)c1 + CC(=O)Nc1cccc(-n2c(=O)n(C3CC3)c(=O)c3c(Nc4ccc(I)cc4F)n(C)c(=O)c(C)c32)c1 [Trametinib] (partner 0.02 µM)" measured_target=LCLC-97TM1 readout_number=0.175
compound="O=c1cc(-c2cccc3c2Sc2ccccc2S3)oc(N2CCOCC2)c1 + N=C(N)NC(=N)NCCc1ccccc1 [Phenformin] (partner 250 µM)" measured_target=LCLC-97TM1 readout_number=0.475
